# assay-name: Rat pharmacokinetic test
# Format: in vivo, SD rats
# condition-notes: both sexes, SD, rat, plasma, po, 30 mg/kg, SD rats, multiple gavage, 30 mg/kg once per day for 7 days
measurement-kind: AUC(0-inf) (ng·h/mL)
Only the number, expressed in ng·h/mL, is required.

Exercise: Can you share its AUC(0-inf)? I mean this compound: O=C(O)C[S+]([O-])c1cc(NS(=O)(=O)c2ccc(Br)cc2)c2ccccc2c1O (stereo not shown)
Solution: 26600

----------
# assay-name: Rat pharmacokinetic test
# Assay type: in vivo, SD rats
# condition-notes: both sexes, rat, plasma, po; SD rats, single gavage, 30 mg/kg
measurement-kind: half-life
Kindly format the answer as number then unit.

Exercise: Which half-life value belongs to O=C(O)C[S+]([O-])c1cc(NS(=O)(=O)c2ccc(Br)cc2)c2ccccc2c1O (stereo not shown) [Embodiment 4] ?
Solution: 3.54 h

----------
# assay-name: Hygroscopicity (vapor sorption analyser, DVS)
# Type: physicochemical
# condition-notes: 90% RH, 25° C.
Reported Percentage weight gain by moisture absorption values follow for various molecules
Answer format: number, then unit.

Field: example entries. Status: answers known.
{"molecule": "O=C(O)C[S+]([O-])c1cc(NS(=O)(=O)c2ccc(Br)cc2)c2ccccc2c1O (stereo not drawn) [Embodiment 7]", "observed-value": "2.313%"}
{"molecule": "O=C(O)C[S+]([O-])c1cc(NS(=O)(=O)c2ccc(Br)cc2)c2ccccc2c1O (stereo not drawn) [Embodiment 4]", "observed-value": "2.13%"}
{"molecule": "O=C(O)C[S+]([O-])c1cc(NS(=O)(=O)c2ccc(Br)cc2)c2ccccc2c1O (stereo not drawn) [Embodiment 5]", "observed-value": "2.655%"}
{"molecule": "O=C(O)C[S+]([O-])c1cc(NS(=O)(=O)c2ccc(Br)cc2)c2ccccc2c1O (stereo not drawn) [Embodiment 11]", "observed-value": "1.897%"}
{"molecule": "O=C(O)C[S+]([O-])c1cc(NS(=O)(=O)c2ccc(Br)cc2)c2ccccc2c1O (stereo not drawn) [Embodiment 10]", "observed-value": "0.2033%"}
{"molecule": "O=C(O)C[S+]([O-])c1cc(NS(=O)(=O)c2ccc(Br)cc2)c2ccccc2c1O (stereo not drawn) [Embodiment 6]", "observed-value": "7.275%"}

Exercise: GET /values?readout=Percentage weight gain by moisture absorption&item= O=C(O)C[S+]([O-])c1cc(NS(=O)(=O)c2ccc(Br)cc2)c2ccccc2c1O (stereo not drawn) [Embodiment 9]
Solution: 0.7884%

Exercise: Which Percentage weight gain by moisture absorption value is on record for O=C(O)C[S+]([O-])c1cc(NS(=O)(=O)c2ccc(Br)cc2)c2ccccc2c1O (stereo not drawn) [Embodiment 12] ?
Solution: 6.026%

Exercise: Which Percentage weight gain by moisture absorption reading was recorded for the molecule O=C(O)C[S+]([O-])c1cc(NS(=O)(=O)c2ccc(Br)cc2)c2ccccc2c1O (stereo not drawn) [Embodiment 13] ?
Solution: 0.439%

----------
# assay-name: Rat pharmacokinetic test
# Format: in vivo, SD rats
# condition-notes: both sexes, Sprague-Dawley (SD), rat, plasma, po; SD rats, single gavage, 30 mg/kg; median (min, max)
measurement-kind: Tmax (min)
Provide only the numeric value, understood in min.

Exercise: Reported Tmax for O=C(O)C[S+]([O-])c1cc(NS(=O)(=O)c2ccc(Br)cc2)c2ccccc2c1O (stereo not shown) : what is it?
Solution: 30
